- test.name: Single dose clinical study: plasma Compound A pharmacokinetics
- Format: in vivo, human
- condition.notes: human, plasma, po, 100 mg, plasma, healthy elderly subjects (Part C), single oral 100 mg; read-out: Vz/F GM (% CV)
quantity: Vd/F (L)
Unit L implied. Number only.

Give the measured Vd/F of COc1ncc(C)c(-c2ccc3c(c2)[nH]c(=O)c2cnn([C@H]4CCOC4)c23)c1C .
253

----------
- test.name: Single dose clinical study: plasma Compound A pharmacokinetics
- Assay type: in vivo, human
- condition.notes: human, plasma, po, 75 mg, plasma, healthy adults (Parts A,B), single oral 75 mg, fasted; read-out: AUC(0-inf) GM
quantity: AUC(0-inf) (ng·h/mL)
Unit ng·h/mL implied. Number only.

Give the measured AUC(0-inf) of COc1ncc(C)c(-c2ccc3c(c2)[nH]c(=O)c2cnn([C@H]4CCOC4)c23)c1C .
9880

----------
- test.name: Single dose clinical study Parts A and C: urine Compound A pharmacokinetics
- Type: in vivo, human
- condition.notes: human, po, 1200 mg, healthy adults Part A, single oral 1200 mg
quantity: CL renal
Please answer using a numeric value trailed by its unit.

Give the measured CL renal of COc1ncc(C)c(-c2ccc3c(c2)[nH]c(=O)c2cnn([C@H]4CCOC4)c23)c1C .
0.287 mL/min

----------
- test.name: Multiple ascending dose study: plasma pharmacokinetics
- Format: in vivo
- condition.notes: human, po, 5 mg, Day 14, 5 mg QD oral, read-out: AUC(0-inf) GM (% CV)
quantity: AUC(0-inf) (ng·h/mL)
Unit ng·h/mL implied. Number only.

Give the measured AUC(0-inf) of COc1ncc(C)c(-c2ccc3c(c2)[nH]c(=O)c2cnn([C@H]4CCOC4)c23)c1C .
2380

----------
- test.name: Single dose clinical study: plasma Compound A pharmacokinetics
- Assay type: in vivo, human
- condition.notes: human, plasma, po, 25 mg, plasma, healthy adults (Parts A,B), single oral 25 mg, fasted; read-out: t1/2 Mean (converted)
- Protocol: This was a single center, single dose, randomized, double blind, placebo controlled study in healthy subjects. It consisted of 4 parts: Parts A, B, C, and D. Each of the four study parts had 2 phases: Prerandomization Phase and Randomization Phase. The Prerandomization Phase lasted up to 30 days and consisted of a Screening Period and a Baseline Period, during which each subject's study eligibility was determined and baseline assessments were performed. […]
quantity: half-life (h)
Unit h implied. Number only.

Give the measured half-life of COc1ncc(C)c(-c2ccc3c(c2)[nH]c(=O)c2cnn([C@H]4CCOC4)c23)c1C [Compound A] .
26.8

----------
- test.name: Single dose clinical study: plasma Compound A pharmacokinetics
- Format: in vivo, human
- condition.notes: human, plasma, po, 25 mg, plasma, healthy adults (Parts A,B), single oral 25 mg, fasted; read-out: AUC(0-72 h) GM
quantity: AUC(0-t) (ng·h/mL)
Unit ng·h/mL implied. Number only.

Give the measured AUC(0-t) of COc1ncc(C)c(-c2ccc3c(c2)[nH]c(=O)c2cnn([C@H]4CCOC4)c23)c1C .
3570

----------
- test.name: Single dose clinical study: plasma Compound A pharmacokinetics
- Format: in vivo, human
- condition.notes: human, plasma, po, 800 mg, plasma, healthy adults (Parts A,B), single oral 800 mg, fasted; read-out: Cmax GM
- Description: This was a single center, single dose, randomized, double blind, placebo controlled study in healthy subjects. It consisted of 4 parts: Parts A, B, C, and D. Each of the four study parts had 2 phases: Prerandomization Phase and Randomization Phase. The Prerandomization Phase lasted up to 30 days and consisted of a Screening Period and a Baseline Period, during which each subject's study eligibility was determined and baseline assessments were performed. […]
quantity: Cmax (ng/mL)
Unit ng/mL implied. Number only.

Give the measured Cmax of COc1ncc(C)c(-c2ccc3c(c2)[nH]c(=O)c2cnn([C@H]4CCOC4)c23)c1C .
2570
